Let's go through some recorded pIC50 values for c-MET (Homo sapiens, UniProt P08581) together.
pIC50: −log10 of the molar value.

>>> reportedvalue("C[C@H](N)c1nn2c(Cc3ccc4ncc(-c5cnn(C)c5)cc4c3)nnc2s1")
"6.00 to 7.00"
>>> reportedvalue("Cn1cc(-c2nn3c(Cc4c(F)cc5ncccc5c4F)nnc3s2)cn1")
"> 7.00"
>>> reportedvalue("Cc1nn2c(Sc3ccc4ncc(-c5cnn(C)c5)cc4c3)nnc2s1")
"> 7.00"
>>> reportedvalue("Cc1nn2c(Cc3cc4cccnc4cc3F)nnc2s1")
"6.00 to 7.00"
>>> reportedvalue("Cn1cc(-c2cnc3ccc(Cc4nnc5sc(C6CCC6)nn45)cc3c2)cn1")
"> 7.00"
>>> reportedvalue("c1ccc(-c2nn3c(Cc4ccc5ncccc5c4)nnc3s2)cc1")
"> 7.00"

Exam item: Fill blank: measured pIC50 of the molecule NCc1ccc(-c2cnc3nnc(Cc4ccc5ncccc5c4)n3c2)cc1 is ____.
Marked response: < 5.00

Exam item: Another molecule: Cn1cc(-c2cnc3ccc(Cc4nnc5sc([C@@H]6CCCN6)nn45)cc3c2)cn1
Marked response: 6.00 to 7.00

Exam item: Another molecule: Fc1cc2ncccc2cc1Cc1nnc2sc(-c3ncc[nH]3)nn12
Marked response: 6.00 to 7.00

Exam item: Another molecule: c1cnc2ccc(Cc3nnc4sc(NC5CC5)nn34)cc2c1
Marked response: > 7.00
